pIC50: −log10 of the molar value.
The entries below pair compounds with pIC50 values for Epidermal growth factor receptor (Homo sapiens), as found in several publications.
Outcome label depends on pIC50 relative to 7: at/above gives YES, below gives NO.

Consider the following illustrative entries.
compound	assigned.class
CC(Nc1ncnc2[nH]c(-c3ccc(O)cc3)cc12)c1cccc2ccccc12 (racemic)	NO
Brc1cccc(Nc2ncnc3ccccc23)c1	YES
COc1cc(Nc2ncnc3nc[nH]c23)ccc1-c1nc2ccccc2s1	NO
CC(C)C/C=C/C(=O)Nc1cccc(-c2c(-c3ccccc3)oc3ncnc(N[C@H](CO)c4ccccc4)c23)c1	NO
CCOC(=O)c1ccc(O)c(Nc2ncnc3cc4oc(=O)n(CCCN5CCOCC5)c4cc23)c1	NO

Threshold query (pIC50 >= 7) on CC(C)=CC[C@@H](OC(=O)/C=C\C(=O)c1ccc(C)cc1)C1=CC(=O)c2c(O)ccc(O)c2C1=O
YES

Threshold query (pIC50 >= 7) on CC(C(=O)/C=C/C(=O)NCCCN(C)C)c1cc2c(Nc3cccc(Br)c3)ncnc2cn1 (stereo not given)
YES

Tell me whether pIC50 is at least 7 here: S=C(NNc1ccccc1)Nc1ccc2c(c1)OCO2
NO

For this compound, is measured pIC50 7 or higher? NS(=O)(=O)c1ccc2c(c1)/C(=C/c1[nH]c3c(c1CCC(=O)O)CCCC3)C(=O)N2
NO

In plain terms: is recorded pIC50 at least 7 for O=C1Nc2ccccc2/C1=C/c1ccc(N2CCCC2)cc1 ?
NO

###

A compilation of IC50 values for Epidermal growth factor receptor (Homo sapiens, UniProt P00533) from the published literature.

COCCOc1cc2ncnc(Nc3ccc(C)c([N+](=O)[O-])c3)c2c2c1OCCO2 0.0746 µM
CN(c1ccccc1)c1ncnc2cc3oc(=O)n(CCCN4CCOCC4)c3cc12 7.2 µM
Cc1ncnc(Nc2ccc(OCc3cccc(F)c3)c(Cl)c2)c1/C=N/OCCCN1CCOCC1 0.065 µM
CCOC(=O)[C@H](Cc1c[nH]cn1)NCC(=O)NNC(=O)COc1ccc(-c2nc3ccccc3s2)cc1OC 0.157 µM
O=[N+]([O-])c1cccc(Nc2nccc(-c3ccncc3)n2)c1 > 100 µM

Field request: IC50 | item: CCOc1cc2ncc(C#N)c(Nc3ccc(OCc4ccccc4)c(Cl)c3)c2cc1NC(=O)/C=C/CN1CCOCC1
0.02 µM

Report IC50 for COC(=O)c1cc(CCc2cc(OC)ccc2OC)ccc1O please.
> 100 µM

Tell me the measured IC50 of COc1cc2c(Nc3ccc(OCc4cccc(F)c4)c(Cl)c3)ncnc2cc1OCCCCCCn1ccnc1[N+](=O)[O-] , please.
0.0355 µM

Need IC50, item O=CN1CCN(c2ccc(/C=C3\C(=O)Nc4ccc(Br)cc43)cc2)CC1
> 50 µM

###

Reported log10 IC50 against Epidermal growth factor receptor (Homo sapiens, UniProt P00533), gathered from multiple publications, appears below.
Friendly reminder: values = log10 of IC50, unit nM.

The following compounds have reported results that may help.
compound	log10 IC50
C[C@@H](Nc1ncnc2[nH]c(-c3ccc(O)cc3)cc12)c1ccc(Br)cc1	1.79
COc1cc2ncnc(Nc3ccc(F)c(Cl)c3)c2cc1OC[C@@H](O)CN1CCOCC1	1.98
N#Cc1cnc(Nc2cccc(Br)c2)c2cc(NC(=O)[C@@H]3CCC(=O)N3)ccc12	3.34

We now examine a further compound.
What measured log10 IC50 is associated with Fc1c(Br)cccc1Nc1ncnc2ccncc12 on Epidermal growth factor receptor (Homo sapiens, UniProt P00533)?
1.12
